Give measured Hepatotoxicity (association with vascular disease) for each item. Keep answers brief.
measurementSetup: human;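 note: count of indexed literature references reporting vascular liver injury in humans, e.g. peliosis hepatitis, hepatic veno-occlusive disease or Budd-Chiari syndrome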
// no unit, no text: just the number

Task item: Could you tell me which Hepatotoxicity (association with vascular disease) is on file for CCCC(=O)O[C@H]1[C@H](C)O[C@@H](O[C@H]2[C@H](N(C)C)[C@@H](O)[C@H](O[C@H]3[C@@H](CC=O)C[C@@H](C)[C@@H](O)/C=C/C=C/C[C@@H](C)OC(=O)C[C@@H](O)[C@@H]3OC)O[C@@H]2C)C[C@@]1(C)OC(=O)CC ?
Reply: 0

Task item: // next record CCCCN1CCCCC1C(=O)Nc1c(C)cccc1C (configuration not stated)
Reply: 0

Task item: Further, for COc1ccnc(C[S+]([O-])c2nc3ccc(OC(F)F)cc3[nH]2)c1OC (configuration not stated) ?
Reply: 0

Task item: And then O=C(NCCN1CCOCC1)c1ccc(Cl)cc1 [MOCLOBEMIDE] , what is it?
Reply: 0

Task item: Same for CC(=O)CC(c1ccccc1)c1c(O)c2ccccc2oc1=O (configuration not stated)
Reply: 0

Task item: Also CC(C)OC(=O)C(C)(C)Oc1ccc(C(=O)c2ccc(Cl)cc2)cc1 [FENOFIBRATE] ?
Reply: 0

Task item: Now this one: CCC(c1ccccc1)c1c(O)c2ccccc2oc1=O (configuration not stated)
Reply: 0

Task item: And then CCOP(=O)(OCC)C(C)NC(=O)N(CCCl)N=O (configuration not stated) , what is it?
Reply: 0

Task item: # iterate: COCCCC/C(=N\OCCN)c1ccc(C(F)(F)F)cc1
Reply: 0

Task item: And for CC1(C)NC(=O)N(c2ccc([N+](=O)[O-])c(C(F)(F)F)c2)C1=O [NILUTAMIDE] ?
Reply: 0

Task item: Next: Cc1c(O)cccc1C(=O)N[C@@H](CSc1ccccc1)[C@H](O)CN1C[C@H]2CCCC[C@H]2C[C@H]1C(=O)NC(C)(C)C
Reply: 0

Task item: Same again, this time with C[C@H]1c2cccc(O)c2C(=O)C2=C(O)[C@]3(O)C(=O)C(C(N)=O)=C(O)[C@@H](N(C)C)[C@@H]3[C@@H](O)[C@@H]21.O
Reply: 0

Task item: Next: NC(CO)C(=O)NNCc1ccc(O)c(O)c1O (configuration not stated) [BENSERAZIDE]
Reply: 0

Task item: Param item: CC1CCc2cc(F)cc3c(=O)c(C(=O)O)cn1c23 (configuration not stated)
Reply: 0

Task item: Item: CC#C[C@]1(O)CC[C@H]2[C@@H]3CCC4=CC(=O)CCC4=C3[C@@H](c3ccc(N(C)C)cc3)C[C@@]21C
Reply: 0

Task item: And what about the compound CCOC(=O)[C@H](CCc1ccccc1)N[C@@H](C)C(=O)N(CC(=O)O)C1Cc2ccccc2C1 ?
Reply: 0

Task item: Entry NCCC(O)(P(=O)(O)O)P(=O)(O)O please
Reply: 0
